# protein stability index per record follows
B1: VAMP4 (parent)
chain: IMALVAAILLLVIIILIVMKYRT

# Variants of: B1
# Assay summary: protein stability index of a GFP-peptide fusion (GPS, HEK-293T) (PSI 1-6); higher = more stable;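 further: lentivirally expressed fusions sorted by FACS into six bins by GFP to DsRed ratio, PSI derived from sequencing read proportions per bin multiplied by bin number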
# Assay context: c terminus: native
Just the number, please, no unit attached.

Recorded results for 6 variants are shown here.
I14M
3.09
T23Y
3.37
I17H
1.85
M19A
2.88
M19N
3.33
A3S
2.86

Name the recorded protein stability index of the variant listed here: I17D 1.74

Name the recorded protein stability index of the variant listed here: R22V 3.7

Name the recorded protein stability index of the variant listed here: A6S 3.71

Name the recorded protein stability index of the variant listed here: V12E 1.6

Name the recorded protein stability index of the variant listed here: K20E 3.49

Name the recorded protein stability index of the variant listed here: A7N 2.02

Name the recorded protein stability index of the variant listed here: V5S 2.96

Name the recorded protein stability index of the variant listed here: I14E 2.02

Reference source for all entries: the supplement of paper PMC10567573
